# Test Summary: HepG2 cell viability effects, profiling panel, calcein-AM fluorescence, 48 h, basal (AID 1164); note: test concentration not given here
# Stated Conditions: higher = more signal
Please use the following z-score ranges when assigning a class: lower level (below -0.4), middle level (-0.4 to below 0.4), upper level (0.4 or more)

# example entries with known answers
| Molecule | Label Class |
| --- | --- |
| CO[C@]12C=C(Br)[C@@H](C[C@@H]1c1cccc(C)c1)[C@@]1(CO1)C2=O | lower level |
| COc1ccc([Si](C)(C)[C@@H]2[C@@H](CC(=O)N(CCO)Cc3ccccc3)O[C@]3(C(=O)N(c4ccccc4)c4ccccc43)[C@H]2C)cc1 | lower level |
| COCCCNC(=O)[C@@]1(Sc2ccc(C)cc2)CC(=O)N(C2CCCCC2)[C@@H]1c1ccc(CO)cc1 | lower level |

Input: Where would COC(=O)c1ccc([C@H](NC(=O)c2ccco2)[C@]2(C)C[C@H]2C2CCCCC2)cc1 land among the classes by reported z-score?
Output: lower level

Input: Class? Entry: O=c1n(-c2ccccc2)c(=O)n2n1CC(COc1ccccc1)=C([C@H](O)CCc1ccccc1)[C@@H]2CO
Output: upper level

Input: In plain terms, what class is COC(=O)[C@@]1(Cc2ccccc2)[C@H]2c3cc(C(=O)N(C)C)n(CCc4ccc(O)c(OC)c4)c3C[C@H]2CN1C(=O)c1ccccc1 ?
Output: middle level

Input: Determine which band this molecule sits in: CO[C@H]1O[C@H](CO)[C@@H](OC(=O)Nc2ccc3c(c2)OCO3)[C@H](OC(=O)c2cc3ccccc3[nH]2)[C@H]1OC(=O)c1cc2ccccc2[nH]1
Output: upper level

Input: Please report the category associated with CCOC(=O)C[C@H]1[C@H](OC(=O)Cc2ccc3c(c2)OCO3)[C@@H](NC(=O)Cc2ccc(OC)cc2)c2cc(OCCCO)ccc2N1C(=O)c1ccc2ccccc2n1 , nothing else.
Output: upper level

Input: Could you tell me which band CCOC(=O)C1=CC[C@@H](c2ccccc2C(F)(F)F)N(S(=O)(=O)c2ccc(C)cc2)[C@H]1c1ccc(C#N)cc1 belongs to?
Output: middle level

Input: Returns: class label. Input: CC1CC/C=C\[C@H]2OC34C=CCN(c5ccc(Cl)cc5)C(=O)[C@H]3N(CCCCCO)C(=O)[C@]4(C)C2C(=O)O1 (stereo partly drawn)
Output: upper level

Input: Sort COc1ccc(CCN2C(=O)[C@@]3(Cc4ccccc42)c2ccccc2C(=O)N(Cc2ccccc2OC)[C@H]3c2ccc(CO)cc2)cc1 into one of the categories.
Output: middle level

====

# Tested on: Chordin-like protein 2 (CHRDL2)
# Test Summary: CHRDL2 small-molecule binders, primary screen, biochemical, small-molecule microarray, 635 nm fluorescence (AID 1126);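 note: printed compound slides probed with Chrdl2 protein at 4 µg/mL for 1 h at 4 C; score merges 667 nm emission intensity with signal to noise over three replicate slides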
# Stated Conditions: small-molecule microarray binding, fluorescence 635 nm; higher = more signal
If the reported composite z-score equals or exceeds -0.09, assign met. If not, assign not met.

Example cases with answers are listed next.
| Compound String | Target System | Label Class |
| --- | --- | --- |
| COc1ccc([Si](C)(C)[C@@H]2[C@@H](CCn3cc([C@H](O)c4ccccc4)nn3)O[C@]3(C(=O)N(Cc4ccc(N5CCC5=O)cc4)c4ccccc43)[C@H]2C)cc1 | Chordin-like protein 2 (CHRDL2) | met |
| O=c1n(-c2ccccc2)c(=O)n2n1CC(COc1ccccc1)=C([C@H](O)CCc1ccccc1)[C@@H]2CO | Chordin-like protein 2 (CHRDL2) | met |
| CCOC(=O)C[C@H]1[C@H](OC(=O)Cc2ccc3c(c2)OCO3)[C@@H](NC(=O)Cc2ccc(OC)cc2)c2cc(OCCCO)ccc2N1C(=O)c1ccc2ccccc2n1 | Chordin-like protein 2 (CHRDL2) | met |
| COCCOC(=O)N1C(=O)[C@@]2(c3cc(C#CC4=CCCCC4)ccc31)[C@H](c1ccc(O)cc1)N1[C@H](c3ccccc3)[C@H](c3ccccc3)OC(=O)[C@H]1[C@@H]2C(=O)N1CCN(c2ncccn2)CC1 | Chordin-like protein 2 (CHRDL2) | not met |
| COC(=O)c1nc2oc1CC[C@@H](CO)NC(=O)N(C)Cc1cnnn1C[C@H](Cc1ccccc1)NC2=O | Chordin-like protein 2 (CHRDL2) | not met |

Now look at this entry.
Input: Could you tell me if the measured composite z-score of O=C(CS)NCCCCCNC(=O)[C@@H]1C[C@@H]2C(=O)N3CCC[C@H]3C(=O)N2[C@@H]1c1cccc(OCCO)c1 reaches -0.09 or more?
Output: met

====

# Test Summary: CREB reporter modulators under forskolin, primary screen, cell-based, PC12, CRE-LacZ reporter, forskolin-stimulated (AID 1146);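 note: PC12 cells with 6xCRE LacZ reporter stimulated by forskolin 10 µM; beta-galactosidase reporter signal reflecting CREB driven transcription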
# Stated Conditions: luminescence, 4.5 h, higher = more signal, called active from +8 up or from −8 down
Use -0.4 as the dividing line for z-score, with the line itself on the YES side and lower values as NO.

Input: Could you tell me if the measured z-score of COCCOC(=O)N1C(=O)[C@@]2(c3cc(C#CC4=CCCCC4)ccc31)[C@H](c1ccc(OCCO)cc1)N1[C@H](c3ccccc3)[C@H](c3ccccc3)OC(=O)[C@H]1[C@@H]2C(=O)N1CCN(c2ncccn2)CC1 reaches -0.4 or more?
Output: NO

Input: Tell me whether z-score is at least -0.4 here: CC(C)(C)N1CC=CC23O[C@@H]4C=CCCOC(=O)C4[C@H]2C(=O)N(CCO)[C@@H]3C1=O (stereo partly specified)
Output: NO

Input: Is it the case that COCCOC(=O)N1C(=O)[C@@]2(c3cc(C#CCCO)ccc31)[C@H](c1ccccc1OCCO)N1[C@H](c3ccccc3)[C@H](c3ccccc3)OC(=O)[C@H]1[C@@H]2C(=O)Nc1nc2ccccc2s1 has z-score reaching or exceeding -0.4?
Output: YES

Input: # check: z-score of CC(C)[Si](C#CCCCC#N)(O[C@H](c1ccccc1)c1cn([C@H](CO)Cc2ccccc2)nn1)C(C)C is greater than or equal to -0.4
Output: YES

====

# Test Summary: small-molecule binders of probe aLefty1, primary screen, biochemical, small-molecule microarray, 635/667 nm fluorescence (AID 1153);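 note: score merges spot fluorescence with signal-to-noise ratio from the scanned slide images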
# Stated Conditions: higher = more signal
Property: composite z-score
Lab note: jot down the number only; don't add units.

Example entries begin here.
| Compound | composite z-score |
| --- | --- |
| COc1cc(CO)cc(I)c1O[C@H]1C=C(C(=O)NCCO)C[C@@H](NCc2ccc(F)cc2)[C@@H]1O | -0.24 |
| COCCOC(=O)N1C(=O)[C@@]2(c3cc(C#CC4=CCCCC4)ccc31)[C@H](C(N)=O)[C@H]1C(=O)O[C@H](c3ccccc3)[C@H](c3ccccc3)N1[C@@H]2c1ccccc1OCCO | 0.199 |
| C[N+](C)(C)CCCCCCNC(=O)[C@H]1C[C@H]2C(=O)N[C@@H](Cc3ccccc3)C(=O)N2[C@H]1c1ccc(O)cc1 | -0.0475 |
| C=CCNC(=O)[C@H]1[C@@H]2C(=O)O[C@@H](c3ccccc3)[C@@H](c3ccccc3)N2[C@@H](c2ccc(O)cc2)[C@]12C(=O)N(C(=O)OCCOC)c1ccccc12 | -0.514 |
| COc1ccc([Si](C)(C)[C@@H]2[C@@H](CCn3cc([C@H](O)c4ccccc4)nn3)O[C@]3(C(=O)N(Cc4ccc(N5CCC5=O)cc4)c4ccccc43)[C@H]2C)cc1 | -0.696 |

Input: Supply recorded composite z-score for CN1C(=O)C2C=CC(C(O)C#Cc3ccccc3)N(Nc3ccccc3)C2C1=O (configuration not stated) here.
Output: 0.545

Input: Dear colleague, please send me the reported composite z-score for CC(C)(C)N1CC=CC23O[C@@H]4C=CCOC(=O)[C@@H]4[C@H]2C(=O)N(CCCCCCO)[C@@H]3C1=O (some centres not stated) when you can.
Output: -0.108

====

# Test Summary: S. cerevisiae growth modulation with rapamycin, primary screen, strain BY4716, OD600, 96 h (AID 1091); note: test concentration not given here
# Stated Conditions: higher = more signal, called active from +8 up or from −8 down
Answer Not fulfilled if z-score is under 0.6, and Fulfilled if it is 0.6 or more.

| Compound | Label Class |
| --- | --- |
| OCC1CC(c2ccccc2)=NO1 (stereo not drawn) | Not fulfilled |

Continue with the next compound.
Input: Check if z-score >= 0.6 (inclusive). Item: COc1ccc(CCN2C(=O)[C@@]3(Cc4ccccc42)c2ccccc2C(=O)N(Cc2ccccc2OC)[C@H]3c2ccc(CO)cc2)cc1
Output: Not fulfilled

====

Quick list: composite z-score per entry.
# Target System: Follistatin-related protein 3 (Homo sapiens)
# Test Summary: FSTL3 binders on small-molecule microarrays, primary screen, biochemical, small-molecule microarray, 635 nm fluorescence (AID 1105);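 note: score merges emission near 667 nm and signal to noise per printed spot across three slides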
# Stated Conditions: FSTL3 binding, higher = more signal

| Compound | Observed Value |
| --- | --- |
| CCOc1cc(C(O)C2C=CC3C(=O)N(C)C(=O)C3N2Nc2ccccc2)ccc1O (configuration not stated) | 0.0592 |
| COC(=O)C(CC#Cc1ccc2c(c1)[C@]1(C(=O)N2)[C@H](c2ccccc2OCCO)N2[C@H](c3ccccc3)[C@H](c3ccccc3)OC(=O)[C@H]2[C@@H]1C(=O)NC[C@H](O)c1ccccc1)C(=O)OC | 0.682 |
| CCCC[C@@H]1C[C@H]1[C@@H](NC(=O)c1cccs1)c1ccc(C(F)(F)F)cc1 | -0.152 |
| Cc1cc(C)c(C(O)C2C=CC3C(=O)NC(=O)C3N2Nc2ccc(Cl)cc2Cl)c(C)c1 (configuration not stated) | 0.95 |
| COc1cc(OC)c(C(O)C2C=CC3C(=O)N(C)C(=O)C3N2NC(=O)OC(C)(C)C)cc1Br (configuration not stated) | 1.41 |

Input: Entry O=C(CS)NCCCCCCNC(=O)[C@H]1C[C@H]2C(=O)N[C@@H](Cc3ccccc3)C(=O)N2[C@H]1c1ccc(O)cc1 needs its composite z-score filled in; supply it.
Output: 0.333

Input: Give a short answer stating reported composite z-score for COCCCNC(=O)[C@]1(CCS(=O)(=O)c2ccccc2)N=C(c2ccc(OCCCO)cc2)O[C@@H]1c1ccccc1N=[N+]=[N-] .
Output: 0.735
